- target_or_test_system: ACE (from rabbit lung) (Oryctolagus cuniculus, UniProt P12822)
- Construct: ACE (from rabbit lung); purchased Sigma Chemicals Co., Ltd. (St. Louis, MO, USA); host or cells: rabbit lung (tissue of origin)
- Sequence (P12822 34-1310): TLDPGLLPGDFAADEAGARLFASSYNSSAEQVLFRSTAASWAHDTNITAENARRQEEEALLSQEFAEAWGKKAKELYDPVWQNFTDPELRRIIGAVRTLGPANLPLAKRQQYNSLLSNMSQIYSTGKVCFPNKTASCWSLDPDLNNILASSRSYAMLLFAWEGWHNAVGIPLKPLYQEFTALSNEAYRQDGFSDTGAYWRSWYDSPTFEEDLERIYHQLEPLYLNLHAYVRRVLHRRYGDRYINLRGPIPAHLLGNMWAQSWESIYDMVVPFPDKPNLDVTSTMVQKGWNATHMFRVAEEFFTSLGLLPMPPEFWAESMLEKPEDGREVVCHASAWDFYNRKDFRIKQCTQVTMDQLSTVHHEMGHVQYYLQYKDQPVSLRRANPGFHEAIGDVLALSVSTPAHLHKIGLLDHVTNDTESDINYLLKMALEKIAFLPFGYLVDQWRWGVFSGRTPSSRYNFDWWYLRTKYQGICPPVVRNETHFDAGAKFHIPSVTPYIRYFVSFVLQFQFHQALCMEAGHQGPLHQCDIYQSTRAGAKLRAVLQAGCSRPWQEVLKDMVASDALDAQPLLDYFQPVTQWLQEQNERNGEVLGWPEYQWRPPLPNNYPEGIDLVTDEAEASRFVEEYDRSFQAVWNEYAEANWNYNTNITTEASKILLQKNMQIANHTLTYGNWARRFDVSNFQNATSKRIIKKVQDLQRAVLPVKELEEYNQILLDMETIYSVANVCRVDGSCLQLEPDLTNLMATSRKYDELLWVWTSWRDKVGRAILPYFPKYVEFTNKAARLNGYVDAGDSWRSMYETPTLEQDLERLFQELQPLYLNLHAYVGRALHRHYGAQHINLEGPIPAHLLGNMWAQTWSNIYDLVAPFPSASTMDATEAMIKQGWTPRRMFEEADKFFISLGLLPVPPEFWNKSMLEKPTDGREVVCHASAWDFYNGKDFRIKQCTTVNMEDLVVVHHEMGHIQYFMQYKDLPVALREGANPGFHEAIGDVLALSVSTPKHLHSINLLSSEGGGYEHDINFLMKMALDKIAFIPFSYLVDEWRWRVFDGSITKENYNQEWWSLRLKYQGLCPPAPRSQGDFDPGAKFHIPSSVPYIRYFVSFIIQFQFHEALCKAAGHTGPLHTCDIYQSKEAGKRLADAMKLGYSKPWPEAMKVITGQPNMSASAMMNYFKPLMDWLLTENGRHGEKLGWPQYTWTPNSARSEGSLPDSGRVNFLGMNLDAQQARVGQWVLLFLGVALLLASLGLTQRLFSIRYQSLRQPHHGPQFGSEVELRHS
- experimental_protocol: In vitro ACE inhibitory activity assay (HHL substrate, hippuric acid by HPLC)
- Type: biochemical
- measurement_setup: synthetic peptides; read-out: IC50 for ACE inhibition (converted)
Where a SMILES comes first, the peptide text is derived from it.
quantity: IC50 (µM)

- compound: "CC[C@H](C)[C@H](NC(=O)[C@@H](N)Cc1ccccc1)C(=O)NCC(=O)N[C@@H](CCCNC(=N)N)C(=O)O [FIGR] (H-FIGR-OH; N-terminus and C-terminus assumed)"
  quantity: "IC50"
  unit_abbreviation: "µM"
  reported_value: 1220
- compound: "CC(C)C[C@H](NC(=O)[C@@H](N)CCCCN)C(=O)N[C@@H](Cc1ccccc1)C(=O)O [KLF] (H-Lys-Leu-Phe-OH; N-terminus and C-terminus assumed)"
  quantity: "IC50"
  unit_abbreviation: "µM"
  reported_value: 2190
- compound: "CC(C)C[C@H](NC(=O)[C@H](Cc1ccccc1)NC(=O)[C@@H](N)CCCCN)C(=O)O [KFL] (H-Lys-Phe-Leu-OH; N-terminus and C-terminus assumed)"
  quantity: "IC50"
  unit_abbreviation: "µM"
  reported_value: 1500
- compound: "CC(C)C[C@H](NC(=O)[C@H](C)NC(=O)[C@H](CCCNC(=N)N)NC(=O)[C@@H](N)Cc1ccccc1)C(=O)O [FRAL] (H-FRAL-OH; N-terminus and C-terminus assumed)"
  quantity: "IC50"
  unit_abbreviation: "µM"
  reported_value: 1310

---

Below, each entry is listed with its recorded Retention rate after intestinal digestion.
- experimental_protocol: Digestive stability in artificial intestinal fluid
- Assay type: in vitro ADME
- measurement_setup: 37 °C, 2.0 h
Where a SMILES comes first, the peptide text is derived from it.
quantity: Retention rate after intestinal digestion

- compound: "CC[C@H](C)[C@H](NC(=O)[C@@H](N)Cc1ccccc1)C(=O)NCC(=O)N[C@@H](CCCNC(=N)N)C(=O)O [FIGR] (H-FIGR-OH; N-terminus and C-terminus assumed)"
  reported_value: "50.78% ± 0.77"
- compound: "CC[C@H](C)[C@H](NC(=O)[C@@H](N)Cc1ccccc1)C(=O)N[C@@H](CC(C)C)C(=O)N[C@@H](CCCNC(=N)N)C(=O)O [FILR] (H-FILR-OH; N-terminus and C-terminus assumed)"
  reported_value: "86.23% ± 1.60"
- compound: "CC(C)C[C@H](NC(=O)[C@H](Cc1ccccc1)NC(=O)[C@@H](N)CCCCN)C(=O)O [KFL] (H-Lys-Phe-Leu-OH; N-terminus and C-terminus assumed)"
  reported_value: "73.36% ± 0.86"
- compound: "CC(C)C[C@H](NC(=O)[C@@H](N)CCCCN)C(=O)N[C@@H](Cc1ccccc1)C(=O)O [KLF] (H-Lys-Leu-Phe-OH; N-terminus and C-terminus assumed)"
  reported_value: "88.92% ± 2.60"
- compound: "CC(C)C[C@H](NC(=O)[C@H](C)NC(=O)[C@H](CCCNC(=N)N)NC(=O)[C@@H](N)Cc1ccccc1)C(=O)O [FRAL] (H-FRAL-OH; N-terminus and C-terminus assumed)"
  reported_value: "10.83% ± 0.44"
- compound: "CC(C)C[C@H](NC(=O)[C@H](CCCNC(=N)N)NC(=O)[C@H](CCC(N)=O)NC(=O)[C@@H](N)Cc1ccccc1)C(=O)O [FQRL] (H-FQRL-OH; N-terminus and C-terminus assumed)"
  reported_value: "25.62% ± 2.01"
